- assay_remarks: Pharmacokinetics assay in BALB/C nude mice after intragastrical administration
- Format: in vivo
- assay_conditions: female, mouse, plasma, po, 3 mg/kg, read-out: Plasma Conc. Cmax
observable: Cmax (µg/mL)

INSERT INTO results (molecule, observable, endpoint_value) VALUES
  ('CCn1cc(-c2ccc3oc4c(c3c2)CC(C)N(CC(C)(C)F)C4c2c(F)cc(/C=C/C(=O)O)cc2F)cn1 (stereo not shown)', 'Cmax', 5.46);

(P) C[C@@H]1Cc2cc(-c3cnn(C)c3)ccc2[C@@H](c2c(F)cc(/C=C/C(=O)O)cc2F)N1CC(C)(C)F
(Q) Cc1ncc(-c2ccc3c(c2)CC(C)N(CC(C)(C)F)C3c2c(F)cc(/C=C/C(=O)O)cc2F)s1 (stereo not shown)
(R) CC1Cc2c(oc3ccc(-c4cnn(C)c4)cc23)C(c2c(F)cc(/C=C/C(=O)O)cc2F)N1CC(C)(C)F (stereo not shown)
Prompt line: List the 3 entries from lowest Cmax to highest Cmax value. Lab note: record answer as labels in requested order.
Response line: R, Q, P
